Experiment: chemical genetic growth profiling, strain panel (AID 1159580);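 further: tested at 20 µM; growth read once vehicle control cultures reached saturation at 30 °C; 1 = growth at the plate median or of vehicle wells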
Settings: S. cerevisiae deletion strains, growth OD, locus YDL074C, strain BRE1
Hit rate of the full screen: of about 5,500 compounds, about 2,000 (36%) were called active. About 18% were inconclusive and are not listed. No stated cut-off is given here; in the data, active means normalized growth mostly below about 0.91 (no sharp cut-off); inconclusive means no clear call, values can overlap the other calls; inactive means mostly above about 0.92. This is one part of the list.
Choose the fitting class; nothing outside active, inactive is accepted.

Check out these entries, answers already filled in.
Q: Could you check what this test reported for `CCCCCCCCCCCCCCCC(=O)OC/C=C(C)/C=C/C=C(C)/C=C/C1=C(C)CCCC1(C)C` ?
Ans: inactive

Q: So what was the verdict on `CN(C)CC/C=C1\c2ccccc2Sc2ccc(Cl)cc21` in this test?
Ans: active

Q: Which outcome did this test record for the compound C=C1C2CC[C@H]3[C@]4(C)C[C@H](OC5OC(CO)C(OS(=O)(=O)O)C(OS(=O)(=O)O)C5OC(=O)CC(C)C)C[C@@H](C(=O)O)[C@H]4CC[C@]3(C2)[C@H]1O (stereo not given in full) ?
Ans: inactive

Q: Please let me know the test result on file for `S=c1nc[nH]c2nc[nH]c12` .
Ans: inactive

Q: Assay result, entry CCOC(=O)C(Cc1ccc(O)cc1)NC(C)=O (stereo not given) — outcome?
Ans: inactive

Next:
Q: Returns: the outcome recorded for CC(Oc1ccccc1)C(=O)N[C@@H]1C(=O)N2[C@@H]1SC(C)(C)[C@@H]2C(=O)O (stereo not given in full) in this assay.
Ans: inactive

----------
# normalized growth listing for each entry below
Test: chemical genetic growth profiling, strain panel (AID 1159580);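 further: tested at 20 µM; growth read once vehicle control cultures reached saturation at 30 °C; 1 = growth at the plate median or of vehicle wells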
Details: S. cerevisiae deletion strains, growth OD, locus YPL209C, strain IPL1, stronger effect = lower value
The campaign covered roughly 5,500 compounds. About 2,000 (36%) were called active. About 18% were inconclusive and are not listed. The list shows a part of the results.
Give the figure only, with no unit attached.

Here are 2 molecules together with their reported answers.
Q: Find the recorded normalized growth belonging to `Cc1cc(C(=O)NNc2ccc(F)cc2F)no1` and report it.
Ans: 0.96

Q: Which normalized growth value is on record for `Nc1ccccc1SCc1c(Cl)cccc1Cl` ?
Ans: 0.949

---
Q: Record request: normalized growth value, item `N#Cc1ccc(S(=O)(=O)Nc2ccccc2Oc2ccc(Cl)cc2Cl)cc1`
Ans: 0.983

Q: // lookup normalized growth for `Cc1cc(Cl)ccc1NNC(=O)c1snnc1C`
Ans: 0.943

Q: Name the recorded normalized growth for O=C1C(=O)N(CN2CCc3c([nH]c4ccccc34)C2C(F)(F)F)c2ccc(F)cc21 (stereo not drawn) .
Ans: 0.987

Q: Consider the molecule shown here: `Cc1nn(Cc2cccc(C(=O)Nc3ccc(Cl)cc3)c2)c(C)c1Br` What is its recorded normalized growth?
Ans: 0.981

Q: # input molecule: `Cc1cc(Cl)ccc1NNC(=O)c1ccno1` ; wanted: its normalized growth
Ans: 0.958

Q: Recorded normalized growth for `Cc1cc(C(=O)Nc2ccc(Cl)cc2)nn1C(C)(C)C` , please?
Ans: 1

----------
Experiment: chemical genetic growth profiling, strain panel (AID 1159580);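 further: tested at 20 µM; growth read once vehicle control cultures reached saturation at 30 °C; 1 = growth at the plate median or of vehicle wells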
Details: S. cerevisiae deletion strains, growth OD, locus YJR016C, strain ILV3, stronger effect = lower value
Hit rate of the full screen: of about 5,500 compounds, about 2,000 (36%) were called active. About 18% were inconclusive and are not listed. The list shows a part of the results.
Measurement name: normalized growth
Please give the numeric answer without any surrounding text.

Q: // lookup normalized growth for Cc1ccc(OCC2SCCN2C(=O)c2ccc(C(F)(F)F)cc2)c([N+](=O)[O-])c1 (configuration not stated)
Ans: 1.01

Q: Which normalized growth is reported for this compound? `Cc1nnsc1C(=O)Nc1cc(C(F)(F)F)cc(C(F)(F)F)c1`
Ans: 0.956

Q: Please report the recorded normalized growth for `Cc1cc(NNC(=O)c2ccccc2Cl)nc2c1c(C)nn2C` .
Ans: 0.988

Q: Return reported normalized growth; argument: `Cc1ccc2nc(-c3ccc(Cl)cc3)cn2c1`
Ans: 0.97

Q: Which measured normalized growth value corresponds to `Cc1cc(Cl)ccc1NNC(=O)c1ccno1` ?
Ans: 0.987

Q: Can you share its normalized growth? I mean this compound: `O=C(NNc1ccccc1F)c1ccno1`
Ans: 0.979

Q: Form field: reported normalized growth of `Cc1nnsc1C(=O)NNc1ccc(F)cc1F`
Ans: 0.962

Q: Requested field: normalized growth. Item: `Cc1cc(Cl)ccc1NNC(=O)c1snnc1C`
Ans: 0.977

Q: Fill in the blank: the reported normalized growth of `Cc1ccccc1C(=O)Oc1ccc(C(F)(F)F)cc1[N+](=O)[O-]` is ____.
Ans: 0.968

Q: Look at this compound and give its reported normalized growth. `Cc1cc(C(=O)Nc2ccc(Cl)cc2)nn1C(C)(C)C`
Ans: 0.984

More entries:
Q: Form field: reported normalized growth of `Cc1nn(Cc2cccc(C(=O)Nc3ccc(Cl)cc3)c2)c(C)c1Br`
Ans: 0.985

Q: Requested field: normalized growth. Item: `Cc1cc(C(=O)NNc2ccc(F)cc2F)no1`
Ans: 0.974
